System: SK-OV-3 ovarian
Test: NCI-60 one-dose screen, 48 h (100 = growth as untreated, 0 = no growth, -100 = all killed)
Conditions: 10 µM unless noted
Procedure: Growth inhibition of the SK-OV-3 human tumor cell line is measured as a screen for anti-cancer activity. Cells are grown in 96 well plates and exposed to the test compound for 48 hours. Compounds are tested at a single concentration, which is 10^-5 M for most compounds. The reported endpoint is percent growth (GI% or GIPRCNT), where numbers from 0 - 100% represent growth inhibition, and numbers from -100% - 0 represent cell death. For example, a value of 40 represents 60% growth inhibition. […]
This is part of a sample that, as a whole, favours compounds with a hit. Of some 83,000 tested, about 20% had one in any assay. Activity calls are given as the source filed them. Rule for the calls: active = growth percent below 10; inactive = the rest.
Entries and their growth values follow.

{"columns": ["compound", "growth"],
 "data": [
  ["O=C(/C=C\\c1cccc([N+](=O)[O-])c1)c1ccccc1", "115% (inactive)"],
  ["CC(=O)CC(C)(C)c1ccc(Cl)cc1", "107% (inactive)"],
  ["O=C(Nc1nc(-c2ccccc2)cc(-c2ccc(Cl)cc2)n1)c1ccncc1", "94.6% (inactive)"],
  ["COc1cc2nc3cc([N+](=O)[O-])ccc3c(NCCCNCC(C)(C)O)c2cc1OC", "-46% (active)"],
  ["Cn1c2c(Cl)c(Cl)ccc2c2ccn3c(=O)c4ccccc4nc3c21", "88.9% (inactive)"],
  ["CC[n+]1ccc2c(c1)C(=O)c1nccc3c1c-2nc1ccccc13", "-9.56% (active)"],
  ["Nc1c(C(=O)Nc2ccccc2Cl)sc2nc3c(cc12)CCCCCC3", "43.9% (inactive)"],
  ["CSc1nc2sc3c(c2c(=O)n1-c1ccc(C(C)C)cc1)CCC(=O)C3", "35.6% (inactive)"],
  ["CCCN(CCC)CN(CCC)CCC", "102% (inactive)"],
  ["CNc1cc2nc3cc(NC)c(C)cc3cc2cc1C", "12.7% (inactive)"],
  ["COc1cccc(-c2nc3sccn3c2-c2ccnc(NCCCNS(=O)(=O)c3ccccc3)c2)c1", "79.2% (inactive)"],
  ["CSc1ncnc2c1ncn2C1CCCO1 (stereo unspecified)", "104% (inactive)"],
  ["CS(CCCCN=C=S)=NC(=O)c1c(F)c(F)c(F)c(F)c1F (stereo unspecified)", "91.7% (inactive)"],
  ["CSc1ccc(N=C=C(c2ccccc2)c2ccccc2)cc1", "90.1% (inactive)"],
  ["CCCCCC(=O)Oc1ccc(/C(=C(\\C)c2ccccc2)c2ccc(OCCN(CC)CC)cc2)cc1", "75.2% (inactive)"],
  ["COc1ccc(/C=C/C(=O)c2c(O)c(C)c(O)c3c2OC2=CC(O)=C(C(C)=O)C(=O)[C@]23C)cc1", "-24.9% (active)"]
]}

* * *

Test system: OVCAR-3 ovarian
Experiment: NCI-60 one-dose screen, 48 h
Conditions: 10 µM unless noted
Compounds without any hit were thinned out: in the full panel of roughly 83,000, 20% have a hit. Activity calls are given as the source filed them. How the source made its calls: active means growth percent below 10; inactive means the rest.
Classes used: active, inactive

{"columns": ["compound", "class-name"],
 "data": [
  ["CCCCCCNC(=O)Oc1ccc(/C(=C(\\C)c2ccccc2)c2ccc(OCCN(CC)CC)cc2)cc1", "inactive"],
  ["CCCCCCCCCc1cc(CN2CCCCC2)c(O)c(CN2CCCCC2)c1", "inactive"],
  ["O=c1c2cccc3c(Nc4c(F)cccc4F)ccc(c32)c2nc3ccccc3n12", "inactive"],
  ["COc1ccc(-n2c(C)nc3c(c(C)nn3-c3ccccc3)c2=O)cc1", "active"],
  ["CC(=O)CC(C)(C)c1ccc(Cl)cc1", "inactive"],
  ["CCN(CC)CC(C)Nc1ccc([N+](=O)[O-])c2sc3ccccc3c(=O)c12 (stereo unspecified)", "inactive"],
  ["COc1cc2c(c(OC)c1OC)-c1ccc(N=NC(N)=S)c(=O)cc1[C@@H](NC(C)=O)CC2", "active"],
  ["O=C1c2cccnc2C(=O)c2c1c(C(=O)OCCN1CCOCC1)c1ccccn21", "active"],
  ["COc1ccc(/C=C2\\N=C3Sc4cc(Cl)ccc4C(=O)N3C2=O)cc1", "inactive"],
  ["O=C1OC2C(I)C3CC2C1C3c1ccccc1 (stereo unspecified)", "inactive"],
  ["C/C(=C(/c1ccc(O)cc1)c1ccc(Cl)cc1)c1ccccc1", "active"],
  ["COc1ccc(-c2cn3c(-c4ccc(OC)cc4)cnc3c(Oc3ccc4c(C)cc(=O)oc4c3)n2)cc1", "inactive"],
  ["O=C1NC(=O)C(CC(=O)n2c(-c3ccccc3)nc3ccccc32)C(=O)N1", "inactive"],
  ["COc1cccc(-c2nc3sccn3c2-c2ccnc(NCCCNS(=O)(=O)c3ccc(Cl)cc3)c2)c1", "inactive"],
  ["COc1ccc(-c2cc(-c3cccnc3)nc3sc4c(=O)n(-c5ccc(C)cc5)nnc4c23)cc1OC", "inactive"],
  ["CC(C)[C@H]1COC(=O)N1[C@@H]1C(=O)N([C@@H](CCC(=O)N2CCN(C3CCCC3)CC2)C(=O)N[C@@H]2CCCc3ccccc32)[C@@H]1/C=C/c1cccc(Br)c1", "inactive"],
  ["O=c1c(/C=C/c2ccco2)nnc(SCCN2CCOCC2)n1/N=C/c1ccc([N+](=O)[O-])cc1", "inactive"],
  ["COc1ccc(/C=C/C(=O)c2c(O)c(C)c(O)c3c2OC2=CC(O)=C(C(C)=O)C(=O)[C@]23C)cc1", "active"],
  ["COc1ccc(S(=O)(=O)NCCCNc2cc(-c3c(-c4cccc(OC)c4)nc4sccn34)ccn2)cc1", "inactive"],
  ["CC(C)CC(CC1=CCC2CC1C2(C)C)C1=C(O)C(C)(C)C(=O)C(C)(C)C1=O (stereo unspecified)", "inactive"],
  ["CSc1ncnc2c1ncn2C1CCCO1 (stereo unspecified)", "inactive"],
  ["COc1ccccc1N1CCN(CCn2c(=O)c3c(c4ccccc4n3C)n(C)c2=O)CC1", "inactive"],
  ["CC#Cc1nc2ccccc2c(=O)[nH]1", "active"],
  ["COc1ccc(S(=O)(=O)NCCNc2nccc(-c3c(-c4cccc([N+](=O)[O-])c4)nc4sccn34)n2)cc1", "inactive"],
  ["CCN(C(=O)CN1CCN(c2cc3c(cc2F)c(=O)c(C(=O)O)cn3CC)CC1)c1nc(-c2ccccc2)cs1", "inactive"],
  ["CC/C=C\\C[C@H](F)C/C=C1/C(=O)C=C[C@@H]1C/C=C\\CCCC(=O)OC", "active"],
  ["CCOC(=O)c1c2c(n3ccc(NC(=O)CCN(CC)CC)cc13)C(=O)c1ncccc1C2=O", "inactive"],
  ["CC1(C)CC(C(=O)OCCCCCCCCCCC[P+](c2ccccc2)(c2ccccc2)c2ccccc2)C(C)(C)N1O (stereo unspecified)", "active"],
  ["c1ccc(CSc2ncnc3nc[nH]c23)nc1", "inactive"],
  ["Oc1cc(O)c2c(=S)cc(-c3ccc(Cl)cc3)oc2c1", "inactive"],
  ["Cc1cc(=O)oc2cc(Oc3nc(-c4ccc(Cl)cc4)cn4c(-c5ccc(Cl)cc5)cnc34)ccc12", "inactive"]
]}

src = PubChem BioAssay (NCI)
